The entries below come with measured peptide exchange yield values attached.
assayed_target: T1, HLA-A*02:01 (human)
T1 construct: the tested peptide takes its place; also called peptide-receptive MHC molecules; MHC class I
run_description: UV-ligand exchange, anti-β2m ELISA; grade of peptide exchange yield

- binder: "ALESFLKQV [ALESFLKQV (SEQ ID NO: 99)]"
  peptide exchange yield: "50 to 75%"
- binder: "ALVEENGIFEL [ALVEENGIFEL (SEQ ID NO: 101)]"
  peptide exchange yield: "50 to 75%"
- binder: "IIDDTIFNL [IIDDTIFNL (SEQ ID NO: 88)]"
  peptide exchange yield: "50 to 75%"
- binder: "ILGTEDLIVEV [ILGTEDLIVEV (SEQ ID NO: 149)]"
  peptide exchange yield: "50 to 75%"
- binder: "ALLTGIISKA [ALLTGIISKA (SEQ ID NO: 5)]"
  peptide exchange yield: "50 to 75%"

The recorded peptide exchange yield for ALYPGTDYTV [ALYPGTDYTV (SEQ ID NO: 102)] is 50 to 75%

The recorded peptide exchange yield for SLLDLHTKV [SLLDLHTKV (SEQ ID NO: 159)] is 50 to 75%

The recorded peptide exchange yield for VLLDKIKNL [VLLDKIKNL (SEQ ID NO: 10)] is 20 to 50%

The recorded peptide exchange yield for KISTITPQI [KISTITPQI (SEQ ID NO: 123)] is 20 to 50%

Data credit: patent US20160368965A1
